system: Salmonella typhimurium Ames mutagenicity, literature compiled; experiment: DSSTox (CPDBAS) Carcinogenic Potency Database Salmonella Mutagenicity
Active and inactive are the calls of the source.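 Rule for the calls: active = chemicals rated mutagenic or weakly mutagenic in the Salmonella bacterial test by one literature review, or positive overall by another; inconclusive = no clear call, values can overlap the other calls; inactive = the rest.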
Hello, when you answer, please use one of the following outcomes: active, inactive

**Q:** Tell me the assay call for ClC(Cl)=C(Cl)C(Cl)=C(Cl)Cl please.
**A:** inactive

**Q:** Moving on to the next compound: C#C[C@]1(O)CC[C@H]2[C@@H]3CCc4cc(OC)ccc4[C@H]3CC[C@@]21C
**A:** inactive

**Q:** Moving on to the next compound: Cc1cc(N=Nc2c(O)ccc3ccccc23)c(S(=O)(=O)O)cc1Cl
**A:** active

**Q:** Moving on to the next compound: COc1ccc([N+](=O)[O-])cc1N=Nc1c(O)c(C(=O)Nc2cccc([N+](=O)[O-])c2)cc2ccccc12
**A:** active

**Q:** Moving on to the next compound: Cc1ccc2c(c1[N+](=O)[O-])C(=O)c1ccccc1C2=O
**A:** active

**Q:** Moving on to the next compound: O=C(Nc1nc(-c2ccc([N+](=O)[O-])o2)cs1)C(F)(F)F
**A:** active

**Q:** Moving on to the next compound: ClC(Cl)=C(Cl)Cl
**A:** inactive

**Q:** Moving on to the next compound: COP(=S)(OC)Oc1ccc(SC)c(C)c1
**A:** inactive

**Q:** Moving on to the next compound: ClC(Cl)Cl
**A:** inactive

**Q:** Moving on to the next compound: CN(C)N
**A:** active

**Q:** Moving on to the next compound: O=NN1CCCCC1
**A:** active

**Q:** Moving on to the next compound: NCCCCCCCCCCC(=O)O
**A:** inactive

**Q:** Moving on to the next compound: CCN(CC)C(=O)c1cccc(C)c1
**A:** inactive

---

system: Salmonella typhimurium Ames mutagenicity, literature compiled; experiment: DSSTox (CPDBAS) Carcinogenic Potency Database Salmonella Mutagenicity
Calls of active or inactive are those of the source.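 How the source made its calls: active means chemicals rated mutagenic or weakly mutagenic in the Salmonella bacterial test by one literature review, or positive overall by another; inconclusive means no clear call, values can overlap the other calls; inactive means the rest.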
Hello, when you answer, please use one of the following outcomes: class 1 (active), class 0 (inactive)

**Q:** Tell me the assay call for O=NN1CCC(=O)NC1=O please.
**A:** class 1

**Q:** Moving on to the next molecule: C=C(Cl)CSC(=S)N(CC)CC
**A:** class 1

**Q:** Moving on to the next molecule: Nc1ccccc1C(=O)OC/C=C/c1ccccc1
**A:** class 0

**Q:** Moving on to the next molecule: O=C(O)CN(CCN(CC(=O)O)CC(=O)O)CC(=O)O
**A:** class 0

**Q:** Moving on to the next molecule: CCCCCCCC(=O)OCC(COC(=O)CCCCCCC)OC(=O)CCCCCCC
**A:** class 1

**Q:** Moving on to the next molecule: NNC(=O)c1ccncc1
**A:** class 1

**Q:** Moving on to the next molecule: CC(=O)[O][Hg][c]1ccccc1
**A:** class 0

**Q:** Moving on to the next molecule: CN(C)C(=S)[S][Pb][S]C(=S)N(C)C
**A:** class 1

**Q:** Moving on to the next molecule: O=NN1CCC1
**A:** class 1

**Q:** Moving on to the next molecule: ClCCl
**A:** class 1

**Q:** Moving on to the next molecule: C=CC(O)c1ccc(OC)cc1 (stereo unspecified)
**A:** class 0

**Q:** Moving on to the next molecule: O=c1ccc(=O)[nH][nH]1
**A:** class 0

**Q:** Moving on to the next molecule: C[N+](C)(C)CCO
**A:** class 0

**Q:** Moving on to the next molecule: CC1CN(N=O)CC(C)N1N=O (stereo unspecified)
**A:** class 1

**Q:** Moving on to the next molecule: NCC(=O)O
**A:** class 0

**Q:** Moving on to the next molecule: O=S1(=O)CC=CC1
**A:** class 0

---

test system: Salmonella typhimurium Ames mutagenicity, literature compiled; test: DSSTox (CPDBAS) Carcinogenic Potency Database Salmonella Mutagenicity
The source made the active and inactive calls.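 The calls were made as follows: active = chemicals rated mutagenic or weakly mutagenic in the Salmonella bacterial test by one literature review, or positive overall by another; inconclusive = no clear call, values can overlap the other calls; inactive = the rest.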
EXPERIMENTAL_ENDPOINT: outcome

>  <MOLECULE>
CCC(Cl)CCC(Cl)C(Cl)CC(Cl)C(Cl)C(Cl)CCl (centres undefined)

>  <RECORDED_RESULT>
inactive; active

$$$$
>  <MOLECULE>
Cc1c2ccccc2c(C)c2c1ccc1ccccc12

>  <RECORDED_RESULT>
active

$$$$
>  <MOLECULE>
O=C/C(Cl)=C(/Cl)C(=O)O

>  <RECORDED_RESULT>
active

$$$$
>  <MOLECULE>
Nc1cccc(N)c1

>  <RECORDED_RESULT>
active

$$$$
>  <MOLECULE>
OCc1ccco1

>  <RECORDED_RESULT>
inactive; active

$$$$

**Q:** Quick check: outcome on Salmonella typhimurium Ames mutagenicity, literature compiled, item ClC(Cl)Br ?
**A:** active

**Q:** Moving on to the next molecule: Nc1ccc(N=Nc2ccccc2)c(N)n1
**A:** inactive

**Q:** Moving on to the next molecule: ClC1=C(Cl)C2(Cl)C3C(Cl)C=CC3C1(Cl)C2(Cl)Cl (centres undefined)
**A:** inactive; active

**Q:** Moving on to the next molecule: Cc1cc(C(C)(C)C)c(O)c(C(C)(C)C)c1
**A:** inactive

**Q:** Moving on to the next molecule: CCOc1ccc(NC(C)=O)cc1
**A:** active; inactive

---

system: Salmonella typhimurium Ames mutagenicity, literature compiled; assay: DSSTox (CPDBAS) Carcinogenic Potency Database Salmonella Mutagenicity
Calls of active or inactive are those of the source.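 Rule for the calls: active = chemicals rated mutagenic or weakly mutagenic in the Salmonella bacterial test by one literature review, or positive overall by another; inconclusive = no clear call, values can overlap the other calls; inactive = the rest.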
EXPERIMENTAL_ENDPOINT: outcome

Examples with answers:
>  <COMPOUND>
Cc1ccc(N=Nc2c(O)ccc3ccccc23)c([N+](=O)[O-])c1

>  <TARGET_DESC>
Salmonella typhimurium Ames mutagenicity, literature compiled

>  <EXPERIMENTAL_ENDPOINT>
outcome

>  <RECORDED_RESULT>
active; inactive

$$$$
>  <COMPOUND>
CCOc1ccc(NC(C)=O)cc1[N+](=O)[O-]

>  <TARGET_DESC>
Salmonella typhimurium Ames mutagenicity, literature compiled

>  <EXPERIMENTAL_ENDPOINT>
outcome

>  <RECORDED_RESULT>
active; inactive

$$$$
>  <COMPOUND>
O=c1cc[nH]c(=O)[nH]1

>  <TARGET_DESC>
Salmonella typhimurium Ames mutagenicity, literature compiled

>  <EXPERIMENTAL_ENDPOINT>
outcome

>  <RECORDED_RESULT>
inactive; active

$$$$
>  <COMPOUND>
c1ccc(C2CO2)cc1 (stereo not given)

>  <TARGET_DESC>
Salmonella typhimurium Ames mutagenicity, literature compiled

>  <EXPERIMENTAL_ENDPOINT>
outcome

>  <RECORDED_RESULT>
active; inactive

$$$$
>  <COMPOUND>
O=[N+]([O-])c1ccc(Nc2ccc(Nc3ccccc3)c(S(=O)(=O)O)c2)c([N+](=O)[O-])c1

>  <TARGET_DESC>
Salmonella typhimurium Ames mutagenicity, literature compiled

>  <EXPERIMENTAL_ENDPOINT>
outcome

>  <RECORDED_RESULT>
active; inactive

$$$$
>  <COMPOUND>
ClC/C=C/CCl

>  <TARGET_DESC>
Salmonella typhimurium Ames mutagenicity, literature compiled

>  <EXPERIMENTAL_ENDPOINT>
outcome

>  <RECORDED_RESULT>
active; inactive

$$$$

**Q:** Quick check: outcome on Salmonella typhimurium Ames mutagenicity, literature compiled, item CC(=O)Oc1ccccc1C(=O)O ?
**A:** inactive

**Q:** Moving on to the next compound: CC(C)=CCl
**A:** active; inactive

**Q:** Moving on to the next compound: COc1cc(-c2ccc(N)c(OC)c2)ccc1N
**A:** active; inactive

**Q:** Moving on to the next compound: CCOP(=S)(OCC)Oc1nc(Cl)c(Cl)cc1Cl
**A:** inactive

**Q:** Moving on to the next compound: C=CC1CC=CCC1 (stereo not given)
**A:** inactive

**Q:** Moving on to the next compound: CC(=O)Nc1ccc(N=Nc2cc(C)ccc2O)cc1
**A:** active

---

tested on: Salmonella typhimurium Ames mutagenicity, literature compiled; assay: DSSTox (CPDBAS) Carcinogenic Potency Database Salmonella Mutagenicity
Active and inactive are the calls of the source.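 Rule for the calls: active = chemicals rated mutagenic or weakly mutagenic in the Salmonella bacterial test by one literature review, or positive overall by another; inconclusive = no clear call, values can overlap the other calls; inactive = the rest.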
EXPERIMENTAL_ENDPOINT: outcome

Examples with answers:
>  <COMPOUND>
C1COCCO1

>  <outcome>
inactive; inconclusive

$$$$
>  <COMPOUND>
Brc1c(Br)c(Br)c(Oc2c(Br)c(Br)c(Br)c(Br)c2Br)c(Br)c1Br

>  <outcome>
inactive; active

$$$$
>  <COMPOUND>
CCCN(N=O)C(=N)N[N+](=O)[O-]

>  <outcome>
active; inactive

$$$$
>  <COMPOUND>
Cc1nc(N)cc2[nH]c3ccccc3c12

>  <outcome>
active

$$$$
>  <COMPOUND>
C1CNCCN1

>  <outcome>
inactive

$$$$
>  <COMPOUND>
F

>  <outcome>
inactive; active

$$$$
>  <COMPOUND>
ClC(Cl)=C(c1ccc(Cl)cc1)c1ccc(Cl)cc1

>  <outcome>
inactive; active

$$$$
>  <COMPOUND>
CN(C)c1ccc(C(=N)c2ccc(N(C)C)cc2)cc1

>  <outcome>
active

$$$$
>  <COMPOUND>
CC1=CC(=O)CC(C)(C)C1

>  <outcome>
inactive; active

$$$$
>  <COMPOUND>
ClCC(Br)CBr (centres undefined)

>  <outcome>
active; inactive

$$$$

**Q:** Given NC(=O)c1ccccc1C(N)=O , state its recorded outcome.
**A:** inactive

**Q:** Moving on to the next compound: c1ccc2[nH]c(-c3cscn3)nc2c1
**A:** active

**Q:** Moving on to the next compound: NC(=O)c1cnccn1
**A:** inactive; active
